System: Staphylococcus aureus S13E
Assay type: cell-based
experimental.readout: MIC (µg/mL)

molecule="CC(C)CC(C(=O)NC1C(=O)NC(CC(N)=O)C(=O)NC2C(=O)NC3C(=O)NC(C(=O)NC(C(=O)O)c4cc(O)cc(O)c4-c4cc3ccc4O)C(OC3CC(C)(N)C(O)C(C)O3)c3ccc(c(Cl)c3)Oc3cc2cc(c3OC2OC(CO)C(O)C(O)C2OC2CC(C)(NCc3c4ccccc4cc4ccccc34)C(O)C(C)O2)Oc2ccc(cc2Cl)C1O)N(C)Cc1c2ccccc2cc2ccccc12 (centres unmarked)" unit_annotation=µg/mL experimental_result=4
molecule="CNC(CC(C)C)C(=O)NC1C(=O)NC(CC(N)=O)C(=O)NC2C(=O)NC3C(=O)NC(C(=O)NC(C(=O)O)c4cc(O)cc(O)c4-c4cc3ccc4O)C(OC3CC(C)(NCc4cnc5ccccc5c4)C(O)C(C)O3)c3ccc(c(Cl)c3)Oc3cc2cc(c3OC2OC(CO)C(O)C(O)C2OC2CC(C)(NCc3cnc4ccccc4c3)C(O)C(C)O2)Oc2ccc(cc2Cl)C1O (centres unmarked)" unit_annotation=µg/mL experimental_result=0.125

Cited source: patent US5840684A
